Biological target: Enoyl-acyl-carrier protein reductase (Plasmodium falciparum)
Sequence (Q965D5 whole entry): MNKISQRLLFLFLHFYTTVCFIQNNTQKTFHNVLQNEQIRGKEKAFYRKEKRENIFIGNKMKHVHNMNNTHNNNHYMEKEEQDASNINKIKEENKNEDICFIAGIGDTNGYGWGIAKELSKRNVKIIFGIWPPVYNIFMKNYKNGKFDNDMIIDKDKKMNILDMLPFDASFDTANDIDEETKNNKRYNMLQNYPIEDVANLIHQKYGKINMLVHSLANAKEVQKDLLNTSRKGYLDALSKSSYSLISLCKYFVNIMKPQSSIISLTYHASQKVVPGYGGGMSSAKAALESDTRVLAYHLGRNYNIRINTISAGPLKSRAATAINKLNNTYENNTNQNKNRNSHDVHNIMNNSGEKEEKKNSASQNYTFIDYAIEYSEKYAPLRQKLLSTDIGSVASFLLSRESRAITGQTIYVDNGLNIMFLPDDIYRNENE
metric.name: pIC50
Worth noting: pIC50 values are minus log10 of concentrations stated in mol/L.

Q: Requested field: pIC50. Item: O=[N+]([O-])c1ccc(-c2cc(C(F)(F)F)nn2-c2ccccc2)cc1
Ans: 4.30

---

system: Hemozoin; test: Inhibition of beta-hematin formation at 5 to 100 mM incubated for 48 hrs; conditions: dose 5-100 mM
Overview of recorded inhibition for various compounds

Below, 4 compounds whose answers are already recorded.
COc1ccc(NC(=O)c2ccc3[nH]c(-c4ccc([N+](=O)[O-])s4)nc3c2)cc1Cl: < 98%
Cc1ccc(NC(=O)c2ccc3[nH]c(-c4ccc([N+](=O)[O-])s4)nc3c2)c(C)c1: < 98%
O=C(Nc1ccc(C(F)(F)F)cc1)c1ccc2[nH]c(-c3ccc([N+](=O)[O-])s3)nc2c1: < 98%
Cc1cc(C)cc(NC(=O)c2ccc3[nH]c(-c4ccc([N+](=O)[O-])o4)nc3c2)c1: < 98%

Q: Record O=C(Nc1ccccc1Cl)c1ccc2[nH]c(-c3ccc([N+](=O)[O-])o3)nc2c1 : what is its inhibition with Hemozoin?
Ans: < 98%

Q: Record Cc1ccccc1NC(=O)c1ccc2[nH]c(-c3ccc([N+](=O)[O-])o3)nc2c1 : what is its inhibition with Hemozoin?
Ans: < 98%

Q: Record COc1cc(NC(=O)c2ccc3[nH]c(-c4ccc([N+](=O)[O-])s4)nc3c2)cc(OC)c1OC : what is its inhibition with Hemozoin?
Ans: < 98%

Q: Record Cc1ccc(NC(=O)c2ccc3[nH]c(-c4ccc([N+](=O)[O-])o4)nc3c2)c(C)c1 : what is its inhibition with Hemozoin?
Ans: < 98%

Q: Record Cc1ccc(C)c(NC(=O)c2ccc3[nH]c(-c4ccc([N+](=O)[O-])o4)nc3c2)c1 : what is its inhibition with Hemozoin?
Ans: < 98%

Q: Record O=C(Nc1ccc(Br)cc1)c1ccc2[nH]c(-c3ccc([N+](=O)[O-])o3)nc2c1 : what is its inhibition with Hemozoin?
Ans: < 98%

---

system: Plasmodium falciparum; experiment: Antiplasmodial activity against chloroquine-resistant/mefloquine resistant early ring stage Plasmodium falciparum Dd2 by whole-cell SYBR Green I based assay; assay type: functional, organism-based
metric.name: IC50
Note: state the figure and append the unit.

Cn1nnnc1NCC1CCC2(CC1)OOC1(OO2)C2CC3CC(C2)CC1C3 (stereo not drawn): 0.3 nM
Cn1nnnc1NCC1CCC2(CC1)OOC1(O2)C2CC3CC(C2)CC1C3 (stereo not drawn): 0.3 nM

Q: Requested field: IC50. Item: c1ccc(-n2nnnc2OCC2CCC3(CC2)OOC2(O3)C3CC4CC(C3)CC2C4)cc1 (stereo not drawn)
Ans: 0.3 nM
